# Organism: Homo sapiens
# assay.name: Activation of recombinant His-tagged human cytosolic GPX4 U46C mutant expressed in Escherichia coli M15 assessed as increase in oxidized glutathione-mediated oxidation of NADPH to NADP+ at 0.4 to 250 uM using tert-butyl hydroperoxide as substrate preincubated for 5 mins followed by substrate addition measured for 6 mins by glutathione reductase enzyme coupled fluorescence assay relative to control
measurement.type: Emax (%)

# annotated cases, reported Emax shown
Prompt line: // Emax lookup, key: NCCNS(=O)(=O)c1ccc(NC(=S)NC2CCCC2)cc1
Response line: 279

Prompt line: // Emax lookup, key: CN1CCN(C(S)=Nc2ccc(S(N)(=O)=O)cc2)CC1
Response line: 200

(I) NS(=O)(=O)c1ccc(NC(=S)NCCO)cc1
(II) CC(C)(C)NC(=S)Nc1ccc(S(=O)(=O)NCCN)cc1
Prompt line: Would you kindly point out which of I and II has the smaller Emax figure? Respond with the label that goes with your answer.
Response line: I
(I: 225%, II: 437%)
